test: Average particle size by particle size distribution analyzer; type: physicochemical; details: D-form crystal
Label key: Condition met means Particle size (average particle size) under 200 μm; Condition not met means Particle size (average particle size) of 200 μm or more.

Solved entries (count: 4):
CC[C@H]1OC(=O)[C@H](C)[C@@H](O[C@H]2C[C@@](C)(OC)[C@@H](O)[C@H](C)O2)[C@H](C)[C@@H](O[C@@H]2O[C@H](C)C[C@H](N(C)C(C)C)[C@H]2O)[C@]2(C)CC(C)=C(O2)[C@H](C)C(=O)[C@]1(C)OC [Example 2] | Condition not met
CC[C@H]1OC(=O)[C@H](C)[C@@H](O[C@H]2C[C@@](C)(OC)[C@@H](O)[C@H](C)O2)[C@H](C)[C@@H](O[C@@H]2O[C@H](C)C[C@H](N(C)C(C)C)[C@H]2O)[C@]2(C)CC(C)=C(O2)[C@H](C)C(=O)[C@]1(C)OC [Example 8] | Condition met
CC[C@H]1OC(=O)[C@H](C)[C@@H](O[C@H]2C[C@@](C)(OC)[C@@H](O)[C@H](C)O2)[C@H](C)[C@@H](O[C@@H]2O[C@H](C)C[C@H](N(C)C(C)C)[C@H]2O)[C@]2(C)CC(C)=C(O2)[C@H](C)C(=O)[C@]1(C)OC [Comparison Example 1, reference compound] | Condition met
CC[C@H]1OC(=O)[C@H](C)[C@@H](O[C@H]2C[C@@](C)(OC)[C@@H](O)[C@H](C)O2)[C@H](C)[C@@H](O[C@@H]2O[C@H](C)C[C@H](N(C)C(C)C)[C@H]2O)[C@]2(C)CC(C)=C(O2)[C@H](C)C(=O)[C@]1(C)OC [Comparison Example 2, reference compound] | Condition met

# ---- query compound ----
Find out if reported Particle size (average particle size) for CC[C@H]1OC(=O)[C@H](C)[C@@H](O[C@H]2C[C@@](C)(OC)[C@@H](O)[C@H](C)O2)[C@H](C)[C@@H](O[C@@H]2O[C@H](C)C[C@H](N(C)C(C)C)[C@H]2O)[C@]2(C)CC(C)=C(O2)[C@H](C)C(=O)[C@]1(C)OC [Example 7] is less than 200 μm
Condition met
